test-system: UniProt Q99705
assay-name: MCH receptor antagonistic activity (inhibitory activity, Experimental Example 1)
Assay type: biochemical
In this section, each of the compounds is paired with its reported IC50.

compound	IC50
Cc1c(NC(=O)c2ccc(OC[C@@H]3CCCO3)cc2)ccc2cc(CN[C@H](C)C(C)(C)C)cnc12 [Example 58]	6.8 nM
Cc1c(NC(=O)c2ccc(OC[C@@H]3CCCO3)cc2F)ccc2cc(CNCC(C)C)cnc12 [Example 70]	2.7 nM
Cc1c(NC(=O)c2ccc(OC[C@H]3CCCO3)cc2)ccc2cc(CN[C@H]3CC[C@](C)(O)CC3)cnc12 [Example 51]	4.1 nM
Cc1c(NC(=O)c2ccc(OC[C@@H]3CCCO3)cc2)ccc2cc(CNCC3CC3)cnc12 [Example 37]	3 nM

###

test-system: rat SLC-1 (Rattus norvegicus)
Sequence (P97639 whole entry): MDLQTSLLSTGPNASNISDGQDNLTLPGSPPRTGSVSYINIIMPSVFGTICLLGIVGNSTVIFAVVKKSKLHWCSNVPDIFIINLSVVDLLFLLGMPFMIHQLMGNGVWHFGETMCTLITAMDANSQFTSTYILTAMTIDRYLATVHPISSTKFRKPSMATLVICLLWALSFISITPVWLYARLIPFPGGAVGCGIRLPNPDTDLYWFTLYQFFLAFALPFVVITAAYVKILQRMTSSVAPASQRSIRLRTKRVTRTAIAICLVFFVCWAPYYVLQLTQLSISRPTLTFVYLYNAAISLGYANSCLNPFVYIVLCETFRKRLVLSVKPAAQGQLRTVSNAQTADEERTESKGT
assay-name: MCH receptor antagonistic activity (inhibitory activity, Experimental Example 1)
Format: biochemical
In this section, each of the compounds is paired with its reported IC50.
measurement-label: IC50

compound	test-system	test-value
Cc1c(NC(=O)c2ccc(OC[C@H]3CCCO3)cc2)ccc2cc(CN[C@H]3CC[C@H](O)CC3)cnc12	rat SLC-1 (Rattus norvegicus)	13 nM
Cc1c(NC(=O)c2ccc(OC[C@@H]3CCCO3)cc2F)ccc2cc(CNCC(C)C)cnc12	rat SLC-1 (Rattus norvegicus)	3.2 nM
Cc1c(NC(=O)c2ccc(OCC3CCOC3)cc2)ccc2cc(CNCC3CCOCC3)cnc12 (stereo not drawn)	rat SLC-1 (Rattus norvegicus)	4.5 nM

###

test-system: human SLC-1 (Homo sapiens)
Sequence (Q99705 whole entry): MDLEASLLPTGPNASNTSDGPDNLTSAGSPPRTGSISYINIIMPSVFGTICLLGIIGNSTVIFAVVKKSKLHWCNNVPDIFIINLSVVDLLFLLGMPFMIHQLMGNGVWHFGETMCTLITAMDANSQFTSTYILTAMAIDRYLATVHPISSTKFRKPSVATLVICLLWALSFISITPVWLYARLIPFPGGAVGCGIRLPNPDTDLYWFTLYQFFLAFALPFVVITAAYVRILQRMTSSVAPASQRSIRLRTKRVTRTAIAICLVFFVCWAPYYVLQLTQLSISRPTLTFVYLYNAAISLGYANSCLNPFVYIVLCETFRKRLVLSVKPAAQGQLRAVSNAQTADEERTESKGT
assay-name: MCH receptor antagonistic activity (inhibitory activity, Experimental Example 1)
Assay type: biochemical
Where a name gives a salt, the structure may show the parent alone.
In this section, each of the compounds is paired with its reported IC50.

compound	IC50 (nM)
CCNCc1cnc2c(C)c(NC(=O)c3ccc(OC[C@@H]4CCCO4)cc3)ccc2c1	7.1
Cc1c(NC(=O)c2ccc(OC[C@@H]3CCCO3)cc2F)ccc2cc(CNCC(C)(C)C)cnc12	3.1
Cc1c(NC(=O)c2ccc(OC[C@@H]3CCCO3)cc2)ccc2cc(CNCC3(O)CCCCC3)cnc12 [Example 41, dihydrochloride]	1.5
COC(C)(C)CNCc1cnc2c(C)c(NC(=O)c3ccc(OC[C@@H]4CCCO4)cc3)ccc2c1 [Example 30, dihydrochloride]	8.4

###

Where a name gives a salt, the structure may show the parent alone.
In this section, each of the molecules is paired with its reported melting point.

molecule	melting point
Cc1c(NC(=O)c2ccc(OC[C@@H]3CCCO3)cc2F)ccc2cc(CNCC(C)(C)C)cnc12 [Example 68]	134 to 135 °C
Cc1c(NC(=O)c2ccc(OC[C@@H]3CCCO3)cc2)ccc2cc(CNCCOC(C)C)cnc12 [Example 49]	111 to 113 °C
Cc1c(NC(=O)c2ccc(OCC3CCOC3)cc2)ccc2cc(CNC3CCCC3)cnc12 (stereo not shown) [Example 16]	148 to 149 °C
Cc1c(NC(=O)c2ccc(OCC3CCOC3)cc2)ccc2cc(CNCC(C)C)cnc12 (stereo not shown) [Example 60]	130 to 131 °C
Cc1c(NC(=O)c2ccc(OC[C@@H]3CCCO3)cc2)ccc2cc(CNC[C@@H]3CCCO3)cnc12 [Example 29]	93 to 94 °C
Cc1c(NC(=O)c2ccc(OCC3CCCO3)cc2)ccc2cc(CNCC(C)(C)O)cnc12 (stereo not shown) [Example 1]	138 °C
Cc1c(NC(=O)c2ccc(OCC3CCOC3)cc2)ccc2cc(CNCC(C)(C)C)cnc12 (stereo not shown) [Example 62]	129 °C
Cc1c(NC(=O)c2ccc(OC[C@@H]3CCCO3)cc2)ccc2cc(CNCC3(O)CCCCC3)cnc12 (as salt: hydrochloride) [Example 41, dihydrochloride]	242 to 244 °C
Cc1c(NC(=O)c2ccc(OC[C@@H]3CCCO3)cc2)ccc2cc(CNCC3CC3)cnc12 [Example 37]	156 to 158 °C
Cc1c(NC(=O)c2ccc(OC[C@@H]3CCCO3)cc2)ccc2cc(CNCC3(C)COC3)cnc12 [Example 34]	117 to 119 °C
Cc1c(NC(=O)c2ccc(OC[C@@H]3CCCO3)cc2)ccc2cc(CNC[C@H]3CCCO3)cnc12 [Example 27]	92 to 94 °C
Cc1c(NC(=O)c2ccc(OC[C@@H]3CCCO3)cc2)ccc2cc(CNCC(C)C)cnc12 [Example 38]	142 to 143 °C
CCCNCc1cnc2c(C)c(NC(=O)c3ccc(OC[C@@H]4CCCO4)cc3)ccc2c1 [Example 45]	121 to 122 °C
Cc1c(NC(=O)c2ccc(OCC3CCOC3)cc2)ccc2cc(CNCC(C)C)cnc12 (stereo not shown) [Example 59]	132 °C
Cc1c(NC(=O)c2ccc(OC[C@@H]3CCCO3)cc2)ccc2cc(CN[C@H]3CC[C@@](C)(O)CC3)cnc12 [Example 52]	159 to 161 °C
Cc1c(NC(=O)c2ccc(OC[C@H]3CCCO3)cc2)ccc2cc(CN[C@H]3CC[C@@](C)(O)CC3)cnc12 [Example 53]	163 to 164 °C

###

In this section, each of the molecules is paired with its reported melting point.
Counter-ions that a name gives are not always drawn.
measurement-label: melting point

molecule	test-value
CCCNCc1cnc2c(C)c(NC(=O)c3ccc(OC[C@@H]4CCCO4)cc3F)ccc2c1 [Example 71]	120 to 121 °C
Cc1c(NC(=O)c2ccc(OC[C@H]3CCCO3)cc2)ccc2cc(CNCC(C)(C)C)cnc12 [Example 25]	110 to 111 °C
Cc1c(NC(=O)c2ccc(OC[C@@H]3CCCO3)cc2)ccc2cc(CNC3CCCC3)cnc12 [Example 36]	152 to 153 °C
Cc1c(NC(=O)c2ccc(OCC3CCCO3)cc2)ccc2cc(CN[C@H]3CCCC[C@@H]3O)cnc12 (stereo partly shown) [Example 3]	197 °C
COC(C)(C)CNCc1cnc2c(C)c(NC(=O)c3ccc(OC[C@@H]4CCCO4)cc3)ccc2c1 (as salt: hydrochloride) [Example 30, dihydrochloride]	235 to 237 °C
CCC(CC)NCc1cnc2c(C)c(NC(=O)c3ccc(OC[C@@H]4CCCO4)cc3)ccc2c1 [Example 54]	113 to 115 °C
Cc1c(NC(=O)c2ccc(OCC3CCOC3)cc2)ccc2cc(CNCC3CCOCC3)cnc12 (stereo not shown) [Example 63]	122 to 123 °C

###

test-system: human SLC-1 (Homo sapiens)
assay-name: MCH receptor antagonistic activity (inhibitory activity, Experimental Example 1)
Type: biochemical
measurement-label: IC50 (nM)

molecule	test-value
Cc1c(NC(=O)c2ccc(OC[C@@H]3CCCO3)cc2)ccc2cc(CNCC(C)C)cnc12 [Example 38]	1.5
Cc1c(NC(=O)c2ccc(OCC3CCOC3)cc2)ccc2cc(CNCC(C)C)cnc12 (single isomer, unassigned) [Example 61]	2.2
Cc1c(NC(=O)c2ccc(OC[C@@H]3CCCO3)cc2)ccc2cc(CNC3CCCC3)cnc12 [Example 36]	1.7
CCC(CC)NCc1cnc2c(C)c(NC(=O)c3ccc(OC[C@@H]4CCCO4)cc3)ccc2c1 [Example 54]	5.5
Cc1c(NC(=O)c2ccc(OCC3CCOC3)cc2)ccc2cc(CNCC3CCOCC3)cnc12 (stereo not shown) [Example 63]	3.7
Cc1c(NC(=O)c2ccc(OC[C@@H]3CCCO3)cc2F)ccc2cc(CN[C@H]3CC[C@](C)(O)CC3)cnc12 [Example 69]	6.1
Cc1c(NC(=O)c2ccc(OC[C@@H]3CCCO3)cc2)ccc2cc(CN[C@H]3CC[C@H](O)CC3)cnc12 [Example 48]	9.1

###

test-system: UniProtKB P97639
assay-name: MCH receptor antagonistic activity (inhibitory activity, Experimental Example 1)
Type: biochemical
Structures can show the parent of a compound that is named as a salt.
Threshold 3 nM: IC50 strictly smaller gives 1, otherwise 0.

compound	class
Cc1c(NC(=O)c2ccc(OC[C@@H]3CCCO3)cc2)ccc2cc(CN3CCC(C)(O)CC3)cnc12	0
Cc1c(NC(=O)c2ccc(OC[C@H]3CCCO3)cc2)ccc2cc(CN[C@H]3CC[C@](C)(O)CC3)cnc12	0
Cc1c(NC(=O)c2ccc(OC[C@@H]3CCCO3)cc2)ccc2cc(CNC3CCOCC3)cnc12	0
Cc1c(NC(=O)c2ccc(OC[C@@H]3CCCO3)cc2F)ccc2cc(CNCC(C)(C)C)cnc12	1
Cc1c(NC(=O)c2ccc(OC[C@@H]3CCCO3)cc2F)ccc2cc(CNCC(C)(C)O)cnc12	0
Cc1c(NC(=O)c2ccc(OCC3CCOC3)cc2)ccc2cc(CNCC(C)(C)C)cnc12 (stereo not drawn)	1
CCCNCc1cnc2c(C)c(NC(=O)c3ccc(OC[C@@H]4CCCO4)cc3)ccc2c1	0
Cc1c(NC(=O)c2ccc(OC[C@@H]3CCCO3)cc2)ccc2cc(CN[C@H]3CCCC[C@@H]3O)cnc12	0
Cc1c(NC(=O)c2ccc(OC[C@@H]3CCCO3)cc2)ccc2cc(CNCC3(O)CCCCC3)cnc12 [Example 41, dihydrochloride]	1
Cc1c(NC(=O)c2ccc(OC[C@@H]3CCCO3)cc2)ccc2cc(CNCCOC(C)C)cnc12	0
Cc1c(NC(=O)c2ccc(OC[C@@H]3CCCO3)cc2)ccc2cc(CNCC(C)(C)C)cnc12	1
Cc1c(NC(=O)c2ccc(OC[C@@H]3CCCO3)cc2)ccc2cc(CN[C@H]3CC[C@@](C)(O)CC3)cnc12	0
CC[C@H](C)NCc1cnc2c(C)c(NC(=O)c3ccc(OC[C@@H]4CCCO4)cc3)ccc2c1	0
CCC(CC)NCc1cnc2c(C)c(NC(=O)c3ccc(OC[C@@H]4CCCO4)cc3)ccc2c1	0
